Test system: HSV-1
Experiment: Intraperitoneal challenge of vaccinated mice with an LD50 of HSV-1: symptoms and survival
Type: in vivo
Conditions: Balb/c mice 4 wk old, n=6, vaccinated twice, challenged with an LD50 of HSV-1; FIG. 4
measured attribute: disease symptoms (symptom score 1-5)

substance	measured attribute	result
LHG PEI LDV PST GGG LYR TFA GNP RA (SEQ ID NO:13) (LHGPEILDVPSTGGGLYRTFAGNPRA) [LH1, conjugated polypeptide of Peptide L, GGG spacer and peptide H1]	disease symptoms (symptom score 1-5)	severe symptoms
LYRTFAGNPRA (SEQ ID NO:1) [H1, non-conjugated antigenic peptide, amino acid residues 322 to 332 of the ICP27 protein of HSV-1, reference compound]	disease symptoms (symptom score 1-5)	severe symptoms
NGQ EEK AGV VST GLI GGG LYR TFA GNP RA (SEQ ID NO:12) (NGQEEKAGVVSTGLIGGGLYRTFAGNPRA) [GH1, conjugated polypeptide of Peptide G, GGG spacer and peptide H1]	disease symptoms (symptom score 1-5)	severe symptoms

Origin of the recorded values: patent US6572860B1
